# System: K4 kissing-loop RNA reporter
# measurement-description: apparent KD of K4 kissing-loop reporter; higher = weaker reporter binding
# measurement-setup: Eterna round: R107; input ligand: FMN 200 uM
readout: apparent KD of K4 kissing-loop reporter (nM)
Please reply with the bare figure in nM and do not write the unit itself.

Q. # get_value(readout='apparent KD of K4 kissing-loop reporter', item= GAACAUAGUAAAGGAUAUUCCUGCCUCGCGCGAUUGAUUAGUGAUGUUGACGAUAUCGCUUUGAGGGAAGAAGGUUAACAAGUCA [theeternabot_exclusion_KL_FMN_B_4] )
A. 761

Q. # get_value(readout='apparent KD of K4 kissing-loop reporter', item= GGUAGCAUGGCGGCCGCCACUGUCUACUGAGGCGGAGUGAUGUUCCGGUUUAAAUAACAAGUUCACAGGACCGGGCCAUGCUACC )
A. 382

Q. # get_value(readout='apparent KD of K4 kissing-loop reporter', item= AGCUCAGAGUGACUCGAUAAGAGUCACAAACGAGGACCGGUACGGCCGCCACUCGAAAUAAAGAGAGUGAUGUUCUCGCUGAGCA [FiskerMod 9 - Jieux - Same State Tryptophan A] )
A. 200

Q. # get_value(readout='apparent KD of K4 kissing-loop reporter', item= GAUUCAGUGAUGUUGGAAGGCGAGCGGGAUACCAGCGGAGACUCACGCCCUUGGCAGCCCACAUAUCCCAGGUAGAUAAUAGAUC [Same State - Theophylline A (Freestyle 7)] )
A. 201

Q. # get_value(readout='apparent KD of K4 kissing-loop reporter', item= AAAAUAAAGCAGUGAUGUUGCUUAUGAGAAGGAGCGCACGAAAGUGCAGGUAGGUCGCUCAGCCAAGUGGACGAAAACGUCCACA [#OpenEnded 10 #K4Early] )
A. 112

###

Field: apparent KD of MS2 coat protein. Provide a value for each of the sequences that follow.
# Tested on: MS2 coat protein
# measurement-description: apparent KD of MS2 coat protein; designed switch direction (-1 OFF switch, 1 ON switch): -1; higher = weaker reporter binding
# measurement-setup: input ligand: FMN 200 uM
Please reply with the bare figure in nM and do not write the unit itself.

Q. # get_value(readout='apparent KD of MS2 coat protein', item= CAGUACCUAGGAUAUACACGGCCACGUGAUACCAAGGAGCAACUUGAGGAUCACCCAAGUAGAAGGAGGUACUG [jl-ex2.4.42 ViennaUCT mod] (Eterna round: R97, puzzle: Exclusion 2) )
A. 3200

Q. # get_value(readout='apparent KD of MS2 coat protein', item= AAACCAAUAGUCAGGAUAUCUUAGUCGCGGAUGUGGGAGAAGGGACAUGAGGAUCACCCAUGUGGGAGUAUGUG [Eternabot (L1) Solution 19] (Eterna round: R97, puzzle: Brourd's mod of Exclusion 4) )
A. 116

Q. # get_value(readout='apparent KD of MS2 coat protein', item= CAGCUGAAAGUGAGGAUAUCGACUGCCUCGGCAGUCGAGAAGGCACAUGAGGAUCACCCAUGUCUCAACAGCUG [BmEx4/1-A5] (Eterna round: R97, puzzle: Brourd's mod of Exclusion 4) )
A. 81.4

Q. # get_value(readout='apparent KD of MS2 coat protein', item= UUAACAUGCUGGUGAUCAUACAUGAGGAUCACCCAUGUAACAAGCUUUUUGCUCGUCUUAUAAGAUUACUAGUAUGU [Stov1/10-A1] (Eterna round: R97, puzzle: Sensor, turn-off variant 1) )
A. 24.2

Q. # get_value(readout='apparent KD of MS2 coat protein', item= UAAUAUCUGUAGGAUAUCAGUGGAGAACACGUAUGAGAAGGGCAGACAUGAGGAUCACCCAUGUAUAGGGUCCG [BotMod 6 - Jieux - Exclusion 6] (Eterna round: R97, puzzle: Exclusion 6) )
A. 59.1

###

# Tested on: K4 kissing-loop RNA reporter;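 also: bound reporter read as fluorescence of individual clusters on recovered sequencing chips by microscopy, with normalized cluster intensities fitted with a binding model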
# measurement-description: apparent KD of K4 kissing-loop reporter; higher = weaker reporter binding
# measurement-setup: Eterna round: R107; input ligand: tryptophan 2.4 mM
Field: apparent KD of K4 kissing-loop reporter. Provide a value for each of the sequences that follow.
Please reply with the bare figure in nM and do not write the unit itself.

Q. # get_value(readout='apparent KD of K4 kissing-loop reporter', item= UCUGGUAUAUCUGAUACCAGAGUAUAGUAUCAAUUGAAUAUGGAGUGAUGUUCCAUACAACUCCCUUGGCAGCAGAUCUUCCUCU [Same State Theophylline B GF 23] )
A. 124

Q. # get_value(readout='apparent KD of K4 kissing-loop reporter', item= GUAUCGCUAGGAGGAUAUGUCGUUUUUCAUAGCAAUGGCUGUGCGGAGUGAUGUUCCGAUUUACCGGCAGAAGGCCUAGUGAUAC [FMN B 28] )
A. 89.8

Q. # get_value(readout='apparent KD of K4 kissing-loop reporter', item= GUAUGUUCGAAAGAACGUACAUCUUCGGAAGGAGCGCGUGAAAACGCAGGUAGGUCGCCGAAGUUAUUAGGUAGUGAUGUUACCU [Arginine A K4 8] )
A. 114

Q. # get_value(readout='apparent KD of K4 kissing-loop reporter', item= GCGGCGGGCCAAGGAUAUAUAUUGGAGUGAUGUUGUUCAUUUAUUUGAGCUAGUGAUGUUGGUCAGAUAGAAGGUGGCCCGCCGC [whbob_Ex_FMNB__2th216] )
A. 46.4

Q. # get_value(readout='apparent KD of K4 kissing-loop reporter', item= CCAUUCAUUUACGAUACCAGUCUAAUAUAUUUAAUCAAAACCCUCGCCGAGUGAUGUUCGGACCCUUGGCAGCGUCUGCGACAGG [cyycmullin] )
A. 227

Q. # get_value(readout='apparent KD of K4 kissing-loop reporter', item= CCAUCGCUAUUCGAUACCAGUCAUUUUUUAUUUUAUUUUUUUUUUGGAGUGAUGUUCCAAGACCCUUGGCAGCGAAUAGUGAUGG [whbob_SS_Theo_B_th78] )
A. 106

Q. # get_value(readout='apparent KD of K4 kissing-loop reporter', item= ACUGGAAUUGUACUCCAGUGAUGUUGGAGGCAGGAUAUCCAGUAAAGGAGAAGGGCCAUCGCGCUAUUUAGCCGCAGGCGGCUAA [Atrilazaed] )
A. 131

Q. # get_value(readout='apparent KD of K4 kissing-loop reporter', item= AGCCGAAAGGCGAGUGCUGUCACUCCGGAAGGAGCGCAGGAAACUGCAGGUAGGUCGCCGGAGUGAUGUUCCGGUGCAGCACUCA [Omei KL Arginine A Exc B v6] )
A. 800

Q. # get_value(readout='apparent KD of K4 kissing-loop reporter', item= ACAUUAGGCACGGCCGCCACUGGAUUAAGAUCUUAAGUAUUAAUUAACAUGAGUGAUGUUCAUGCCAGGACCGGGUGACUACCAU [KL-SSTryp-B11] )
A. 252

Q. # get_value(readout='apparent KD of K4 kissing-loop reporter', item= AAAUUUAAUAUAUUUAAAUAAAUAUGUGAUACCAGACAUUUAUAAGUCCCUUGGCAGCACAAUGCAGUGAUGUUGCUUAUAAUAA [JR_SSTheophyA_Sub017] )
A. 73.5

Q. # get_value(readout='apparent KD of K4 kissing-loop reporter', item= ACGUGCACCAGUGAUGUUGGAAAAUAUGAAGGAGCGGGAGAAAGCCCAGGUAGGUCGCAUAAUAGCACGAGCCACGAAAGUGGCA )
A. 131

Q. # get_value(readout='apparent KD of K4 kissing-loop reporter', item= AACUGUCAAGGACAACAUUACUGAAGUGAUACCAGCAUCGAAAGAUGCCCUUGGCAGCACUGACUUGCAGUGAUGUUGCAAGUAA [BrourdMod 7 - Jieux - Exclusion - Theophylline A] )
A. 194

###

# System: MS2 coat protein
# measurement-description: apparent KD of MS2 coat protein; designed switch direction (-1 OFF switch, 1 ON switch): -1; higher = weaker reporter binding
# measurement-setup: input ligand: none
readout: apparent KD of MS2 coat protein (nM)
Please reply with the bare figure in nM and do not write the unit itself.

Q. # get_value(readout='apparent KD of MS2 coat protein', item= AGUUAGAUAGGAUAUGCCCGAGAUAACAUGAGGAUCACCCAUGUGACCGAAUCUAUUCUAGCAGAAGGGUUUAUGA [Mod of ViennaUCT 19 - Jieux - Exclusion 5] (Eterna round: R97, puzzle: Exclusion 5) )
A. 95

Q. # get_value(readout='apparent KD of MS2 coat protein', item= AUGCUCCGUGUAGGAUAUCGCCGUACUAUUCGGCGAGAAGGACAUGAGGAUCACCCAUGUAUGUUAUUAUCACGUGUGGCGCGC [Design 48] (Eterna round: R96, puzzle: Exclusion NG 1) )
A. 18.9

Q. # get_value(readout='apparent KD of MS2 coat protein', item= CAGCUGUCAGGAUAUCGUGCAUACAACGAAAGUUCUAUGUGCGAGAAGGGACAUGAGGAUCACCCAUGUUUACG [Omei Ex4 A24] (Eterna round: R97, puzzle: Exclusion 4) )
A. 28.6

Q. # get_value(readout='apparent KD of MS2 coat protein', item= CUAAUAUAUCAGGAUAUGAUUUUAUGUGUUGGAUCAGAAGGGAUAACAUGAGGAUCACCCAUGUUGUGGAGUGA [JR_Ex6_Sub037] (Eterna round: R97, puzzle: Exclusion 6) )
A. 112

Q. # get_value(readout='apparent KD of MS2 coat protein', item= AGGUCCUUCUGGAGACAUGAGGAUCACCCAUGUCGAGUCAGCGAGGAUAUCGGUUAAUAAUGUGAUGAGAAGGCGCGGACCGAU [Ex NG3 #54] (Eterna round: R96, puzzle: Exclusion NG 3) )
A. 19.3
